Consider compounds characterized by their pIC50 with BTK (Homo sapiens).
Sequence (Q06187 whole entry): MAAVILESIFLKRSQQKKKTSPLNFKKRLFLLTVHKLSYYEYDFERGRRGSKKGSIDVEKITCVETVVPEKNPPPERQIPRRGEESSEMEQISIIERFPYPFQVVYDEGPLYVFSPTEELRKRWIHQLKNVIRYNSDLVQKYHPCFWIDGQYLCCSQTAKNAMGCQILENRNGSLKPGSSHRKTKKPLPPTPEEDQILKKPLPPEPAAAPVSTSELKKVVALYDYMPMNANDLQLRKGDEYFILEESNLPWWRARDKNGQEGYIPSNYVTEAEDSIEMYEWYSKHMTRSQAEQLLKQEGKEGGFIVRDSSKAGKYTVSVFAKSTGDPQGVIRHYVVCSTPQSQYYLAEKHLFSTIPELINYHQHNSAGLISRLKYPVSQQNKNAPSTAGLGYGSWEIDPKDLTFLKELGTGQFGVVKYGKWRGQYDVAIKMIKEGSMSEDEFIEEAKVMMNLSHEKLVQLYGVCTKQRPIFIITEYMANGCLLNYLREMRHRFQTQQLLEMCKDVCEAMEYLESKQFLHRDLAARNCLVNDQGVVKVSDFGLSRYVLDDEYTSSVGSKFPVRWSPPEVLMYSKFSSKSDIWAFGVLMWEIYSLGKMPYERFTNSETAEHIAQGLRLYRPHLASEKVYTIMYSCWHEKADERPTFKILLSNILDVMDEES
Give bare numbers, as −log10 of the molar value.

Solved entries:
Nc1ncnc2c1c(-c1ccc3c(c1)NCCO3)nn2C1Cc2ccccc2C1 = 7.10
Nc1ncnc2c1c(-c1cc(F)c3c(c1)NCCO3)nn2C1Cc2ccccc2C1 = 6.98
Nc1ncnc2c1c(-c1ccc(Cl)c(O)c1)nn2C1Cc2ccccc2C1 = 7.87

Then there is this compound:
pIC50 lookup needed for Nc1ncnc2c1c(-c1ccc3cc[nH]c3c1)nn2C1CCc2ccccc2C1 (racemic) , thanks.
6.59

* * *

Test system BTK (Homo sapiens), pIC50 listed for each of the compounds.
One number for each entry, as −log10 of the molar value.

Known results for compounds:
Nc1ncnc2c1c(-c1ccc(F)c(O)c1)nn2C1CCc2ccccc2C1 (single isomer, unassigned) [Compound No. 26a] = 7.98
COc1cc(-c2nn(C3Cc4ccccc4C3)c3ncnc(N)c23)ccc1N = 7.60
C=CC(=O)N1CC(n2nc(-c3cc(O)cc(F)c3)c3c(N)ncnc32)Cc2cc(C)ccc21 (single isomer, unassigned) [31b] = 7.92

Now consider the entry below.
So what's the measured pIC50 for this one? Nc1ncnc2c1c(-c1cc(O)cc(F)c1)nn2C1CCc2ccccc2C1 (single isomer, unassigned) [6b]
6.95
